Source of measurements: paper PMC4760761

- assay.target: CodY-6His (Listeria monocytogenes) (UniProt A0A0H3GGF1)
- Sequence: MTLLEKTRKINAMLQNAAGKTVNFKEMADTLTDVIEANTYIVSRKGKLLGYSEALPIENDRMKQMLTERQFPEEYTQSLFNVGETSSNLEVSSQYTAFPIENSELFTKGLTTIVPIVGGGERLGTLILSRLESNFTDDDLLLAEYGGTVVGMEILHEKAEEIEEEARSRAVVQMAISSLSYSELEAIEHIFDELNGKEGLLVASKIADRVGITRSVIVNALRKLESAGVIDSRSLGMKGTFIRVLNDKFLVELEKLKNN
- assay.details: EMSA
- settings: EMSA: 20 mM Tris-Cl pH 8, 50 mM KCl, 2 mM MgCl2, 0.5 mM EDTA, 1 mM DTT, 0.05% NP-40, 5% glycerol, 25 ug/ml salmon sperm DNA, 4 ng DIG-DNA, 15 min room …
Listing of entries alongside the reported pKd.
Reminder that pKd is minus the log10 of a molar concentration.

Just so you know, measured pKd for TTAACAAATGTTAGAGAAAAATTAATTCTCCAAGTGATATTCTTAAAATAATTCATGAATATTTTTTCTTATATTAGCTAATTAAGAAGATAATTAACTGCTAATCCAATTTTTAACGGAATAAATTAGTGAAAATGAAGGCCGAATTTTCCTTGTTCTAAAAAGGTTGTATTAGCGTATCACGAGGAGGGAGTATAAGTGGGATTAAATAGATTTATGCGTGCGATGATGGTAGTTTTCATTACTGCCAACTGCATTACGATTAACCCCGACATAATATTTGCAGCGACAGATA (double strand) [actA (LMRG_02626) upstream probe] came out at 6.68

Just so you know, measured pKd for ATTCAACCCTCTTTCAAAATTCTTTTTCCCAAGTGCTTTAAATGGTACACTAATTATACCATAAGCAACTATTTTTCTATTCATTATTTACAAAAACGCTTTAACGTGCTAATATGCTAATAAACTAAAATATCGTAAAGGAGCTAACCAGATGAACTTAAATAAGAACTTACCAACTGGAACACGTGATAAACTTTTTCGTGAAGCACGAGCTGCATACAAAATTGAGCAACAAGTGAATCATTATTTT (double strand) [hisZ (LMRG_00251) upstream probe] came out at 6.82

Just so you know, measured pKd for GAAGAAGTGAAGACGTACCTCATTCTTTAGAGAGCATTTACTGGTGAGTAAACGTATTTAAAGAGTGGAGCGTTTTTATTTTTGAATGTTTTAATTTTATTAGTTAGGGTAAAATCGACAGTATACTTAAAATTAGATGGGGTGAAGTGATGAATATTAGTATAGAAATAAAAGAACGTGATACTGACCACATAGACATATTTGTTGCTGGGGAGATCGATGCTTATACAGCGCCAAAGGTAAAAGAAGCATTAGAAGTATATCAAGTTAAAGAGGG (double strand) [rsbV-sigB (LMRG_02317) upstream probe] came out at 6.82

// switching to the query sequence
Just so you know, measured pKd for AAAAGTAACATTTATTTTTCAGAAAAAATTTTTTAATTTTTACCGCGATGGATTCATTCGCGGTTTTTTTGTATGTAATGCATTGGTATATAAGGCTTTATCTATAATGTTAGATTATCTAACATAAATTTGACAAAACATCTAACGTACATTATAATGCTACTATCATCAAAAAAATAATTATGTTTTGAGGGGGAATTGTCGTGAGCGAAAAGGAAATCCGGAGATCGATGCCGCTTTTTCCAATTGGGCCTGTGATGAAGCTAACTGATCTCACTGCTAGACAAATTCGCTACTATG (double strand) [glnR upstream probe] came out at 7.13

###

- assay.target: CodY-6His (Listeria monocytogenes)
- Sequence: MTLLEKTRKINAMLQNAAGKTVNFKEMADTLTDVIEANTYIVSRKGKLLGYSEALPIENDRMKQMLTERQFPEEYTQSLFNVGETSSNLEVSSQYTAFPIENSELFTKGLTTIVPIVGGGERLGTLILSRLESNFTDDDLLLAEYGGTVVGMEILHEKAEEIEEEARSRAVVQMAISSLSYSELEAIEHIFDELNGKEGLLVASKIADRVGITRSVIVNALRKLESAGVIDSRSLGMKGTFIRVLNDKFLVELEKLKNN
- assay.details: EMSA
- settings: EMSA: 20 mM Tris-Cl pH 8, 50 mM KCl, 2 mM MgCl2, 0.5 mM EDTA, 1 mM DTT, 0.05% NP-40, 5% glycerol, 25 ug/ml salmon sperm DNA, 4 ng DIG-DNA, 15 min room …
readout.kind: Kd (nM)
Hi! Could you send only the number? It should be in nM, unit omitted.

Just so you know, measured Kd for ATTCGCTCAACTCCTTCAATATAACTTCAATAACAAGTATAGCAGTTTTATGAACAGGAACCAATTTATTACTATTTGAAATGATTATTTTTATTTAGAAATGTATTTTTAAGCATAATTATGAATAAATGAAAATAAAAAGGTTGATATCTAAAAGCATCGATGTTAATATAAATACAAATGTTTGTATATTTATGAATAGGGGATGTTTAAAATGGCGAAAGAAAAAATCGTATTAGCTTACTCAGGTGGGTTAGATACTTCTGTGGCAATTCAGTGGTTAGTAGAATCAGGTTATGAAGTTATTGCATGTT (double strand) [argG (LMRG_01241) upstream probe] came out at 70
